All values here come from PubChem BioAssay (NCI).

test system: SN12C renal; experiment: NCI-60 one-dose screen, 48 h (100 = growth as untreated, 0 = no growth, -100 = all killed); conditions: 10 µM unless noted
About 83,000 compounds went through this panel and 20% of them were active in at least one assay; those are over-represented in the sample as a whole.
EXPERIMENTAL READOUT: growth (%)
Numbers only, in %.

Worked examples, 10 molecules total:
OCCOc1c(Cl)cc(Cl)cc1Cl :: 89.8
COC(=O)CCC1=C(CC(=O)OC)C(C)=N/C1=C\c1[nH]c(-c2ccc[nH]2)cc1OC :: 38.7
Cc1cc(C)c2c(c1)N1OC(C2)C[C@H]1/C=C/c1ccccc1 (some centres undefined) :: 92.2
Cn1cc(-c2csc(-c3cn(C)c4ncccc34)n2)c2cc(Br)cnc21 :: 89.4
COc1ccc(-c2csc(NC(=O)c3cc(O)c(O)c(O)c3)n2)cc1 :: 64.8
Cc1nnc(Nc2ccc(NC(=O)Nc3ccc(Cl)cc3)cc2)c2ccccc12 :: 60.1
COc1ccc(C2=NN(C(C)=O)C(c3cc(OC)c(OC)c(OC)c3)C2)cc1 (centres undefined) :: 109
CN1C(=O)/C(=C/c2nc(-c3cccc(F)c3)n3ccccc23)c2ccccc21 :: 85.9
CCCCCCCCSc1ncnc2c1ncn2CO :: 76.4
O=C(COC(=O)[C@H](C[Se][Se]C[C@H](NC(=O)c1ccc(Br)cc1F)C(=O)OCC(=O)c1ccc(F)cc1)NC(=O)c1ccc(Br)cc1F)c1ccc(F)cc1 :: -100

Give growth for each of the items listed below.
1. C=C1CC[C@@H]2[C@](C)(COC(C)=O)[C@H](OC(C)=O)CC[C@@]2(C)[C@@H]1CC(Nc1ccc(S(=O)(=O)Nc2cc(C)on2)cc1)C1=CCOC1=O (some centres undefined)
2. Nc1ccc2c(c1)/C(=N/O)c1cc([N+](=O)[O-])ccc1-2
3. Cn1c(=O)c2c(nc(Br)n2CCC(=O)Nc2ccc(F)cc2)n(C)c1=O
4. Nc1c2ccccc2nc2ccccc12 (tested in a mixture with another compound)
5. O=C(OCCBr)c1ccc(Cl)c([N+](=O)[O-])c1
6. O=C(Nc1ccncc1)C(=O)c1cn(S(=O)(=O)c2cccc(F)c2)c2ccccc12

Outgoing:
[31.8, 86.2, 106, 20.1, 102, 49.1]

Give growth for each of the items listed below.
1. Clc1cccc(Cc2cn3cc(-c4ccccc4)nc3s2)c1
2. N#Cc1cccc(/C=C(/C(=O)c2ccccc2)c2ccccc2)c1
3. COC(=O)[C@]12CC[C@@H](C)[C@H](C)[C@@H]1C1=CC[C@@H]3[C@@]4(C)C=C(O)C(=O)[C@@]5(C)COC(=C54)C[C@@]3(C)[C@]1(C)CC2
4. CC(C)(C)c1ccc(C(O)CCCN2CCC(C(O)(c3ccccc3)c3ccccc3)CC2)cc1 (centres undefined)
5. Cc1nn(-c2ccccc2)c2ncc3c(c12)C(=O)N(Cc1ccccc1)C3=O

Outgoing:
68.2
49.4
-29.9
4.51
23.7

---

system: NCI-H322M lung; assay: NCI-60 one-dose screen, 48 h (100 = growth as untreated, 0 = no growth, -100 = all killed); settings: 10 µM unless noted
About 83,000 compounds went through this panel and 20% of them were active in at least one assay; those are over-represented in the sample as a whole.
What growth was measured for each of the following?
Numbers only, in %.

Worked examples, 5 molecules total:
CSc1nc2c(c(=O)n1C)C(c1ccccc1)C1=C(N2)/C(=C/c2ccccc2)CCC1 (stereo unspecified) :: 86
COc1ccc(OC)c2c1[nH]c(=O)c1c3ccccc3cn21 :: -70.7
COc1cc(/C=C/c2nnc(-c3cc(-c4ccccc4)n[nH]3)o2)cc(OC)c1OC :: 106
Cc1ccccc1NC(=O)c1cc2ccccc2cc1O :: 24.6
CCCOc1ccc2c(c1)CC[C@@H]1[C@@H]2CC[C@@]2(C)[C@H]1CC[C@]2(C)O :: 71.4

Give growth for each of the items listed below.
1. CC(C)(C)c1ccc(C(O)CCCN2CCC(C(O)(c3ccccc3)c3ccccc3)CC2)cc1 (stereo unspecified)
2. CCOC(=O)C(C(C)=O)c1nc2sc3cc(Cl)ccc3n2c(=N)c1C#N (stereo unspecified)
3. Cc1cc(C)n(C(=O)c2nn(-c3ccc(Cl)cc3)cc2O)n1
4. O=[N+]([O-])c1ccc(Oc2cccc(C(F)(F)F)c2)c([N+](=O)[O-])c1
5. c1ccc(-c2nnc(Nc3nnc(-c4ccccc4)s3)s2)cc1
6. O=C(Nc1ccccc1Cl)c1cnc2ccc(C3CCNCC3)cn12
7. O=C(c1ccccc1)c1ccccc1Cl
8. O=C1Cc2cc(CCN3CCN(CCOCCO)CC3)c(Cl)cc2N1Cc1ccc(-c2ccccc2-c2nn[nH]n2)cc1

Outgoing:
53.8
105
37.2
90.3
86.9
23.1
108
108

Give growth for each of the items listed below.
1. COc1ccc(/C=C2\COc3ccc(O)c(O)c3C2=O)cc1OC
2. CCOC(=O)c1c2c(c(C)n1Cc1ccc(OC)cc1)-c1nc(N)ncc1CC2
3. O=C(Nc1ccc(Nc2ccncc2)cc1)c1ccc(Nc2ccnc3ccc([N+](=O)[O-])cc23)cc1[N+](=O)[O-]
4. O=c1cc(-c2cccnc2)oc2c1ccc1ccccc12
5. CC(C)C/C(=N\NC(=O)c1ccncc1)c1cc(Cl)ccc1O

Outgoing:
[48.9, 113, 89.5, 117, 13.1]

Give growth for each of the items listed below.
1. C=C(C)[C@H]1CC/C(C)=C/CC[C@]2(C)O[C@H]2CC/C(C=O)=C\C1O (stereo partly specified)
2. CN1C(=O)/C(=C/c2nc(-c3cccc(F)c3)n3ccccc23)c2ccccc21

Outgoing:
[111, 80.8]

Incoming: For the molecule CSc1ccc2c(c1)N(CCC1CCCCN1C)c1ccccc1S2 (stereo unspecified) , report growth.
Outgoing: 64

---

What growth was measured for each of the following?
Tested on: MALME-3M melanoma
Assay: NCI-60 one-dose screen, 48 h (100 = growth as untreated, 0 = no growth, -100 = all killed)
Settings: 10 µM unless noted
Description: Cells are grown in 96 well plates and exposed to the test compound for 48 hours. Compounds are tested at a single concentration, which is 10^-5 M for most compounds. The reported endpoint is percent growth (GI% or GIPRCNT), where numbers from 0 - 100% represent growth inhibition, and numbers from -100% - 0 represent cell death. For example, a value of 40 represents 60% growth inhibition. A value of 0 means no net growth occurred over the course of the experiment. […]
This is part of a sample that, as a whole, favours compounds with a hit. Of some 83,000 tested, about 20% had one in any assay.
One number for each entry, in %.

Give growth for each of the items listed below.
1. COc1ccc(OC)c(NC(=O)c2cc3oc4ccccc4c3cc2O)c1
2. COc1ccc(Cn2c(NCCCN(C)C)nc(=O)n(Cc3ccc(F)cc3)c2=O)cc1
3. NC(N)=N/N=C(/c1ccccc1)c1ccc(Cl)cc1

Outgoing:
1: 69.7; 2: 87.9; 3: 115

---

system: SK-MEL-2 melanoma; experiment: NCI-60 one-dose screen, 48 h (100 = growth as untreated, 0 = no growth, -100 = all killed); settings: 10 µM unless noted
The panel holds about 83,000 compounds, 20% with a hit somewhere; the sample as a whole holds those more often.
So basically: is growth under 80%? Then True. Not under? Then False.

Below are worked cases with known answers.
COc1ccc2nccc(/C=C/c3ccnc4ccc(OC)cc34)c2c1 :: False
Nc1c2ccccc2nc2ccccc12 (tested in a mixture with another compound) :: True
COc1cc(C2CC(c3ccc(C)cc3)=NN2C(C)=O)ccc1Oc1ccnc2cc(Cl)ccc12 (stereo not given) :: True
Nc1ncc(-c2cnn(C3CCNCC3)c2)cc1-c1nc2cc(Cl)ccc2o1 :: True
Cn1cc(-c2csc(-c3cn(C)c4ncccc34)n2)c2cc(F)cnc21 :: False

Incoming: Report whether reported growth is lower than 80% (strictly) for COc1c(C)c2c(c(O)c1C/C=C(\C)CCC(=O)OCCN1CCOCC1)C(=O)OC2
Outgoing: True

Incoming: Report whether reported growth is lower than 80% (strictly) for O=C(Cn1ccnc1)NC(c1ccccc1)c1ccccc1
Outgoing: False

Incoming: Report whether reported growth is lower than 80% (strictly) for O=c1[nH]c(=O)n(C2CC(O)C(CO)O2)cc1C(F)(F)F (stereo not given)
Outgoing: True

Incoming: Report whether reported growth is lower than 80% (strictly) for O=C(/C=C/c1cc2ccccc2[nH]c1=O)c1ccc(O)cc1
Outgoing: False

Incoming: Report whether reported growth is lower than 80% (strictly) for CN(C)c1nc(-c2ccco2)n2nc(-c3ccco3)cc2n1
Outgoing: False

---

tested on: SF-295 CNS; test: NCI-60 one-dose screen, 48 h (100 = growth as untreated, 0 = no growth, -100 = all killed); details: 10 µM unless noted
Compounds without any hit were thinned out: in the full panel of roughly 83,000, 20% have a hit.
EXPERIMENTAL READOUT: growth (%)
One number for each entry, in %.

Worked examples, 5 compounds total:
C[N+]1(CCC[N+]2(C)C[C@@H]3[C@H](C2)[C@@H]2C=C[C@H]3C2)CCOCC1 (some centres undefined) :: 113
ClC1=C(Cl)C(=C2C(Cl)=C(Cl)C(Cl)=C2Cl)C(Cl)=C1Cl :: 99.2
O=C1CC(C(F)(F)F)=NN1C(=O)c1nn(-c2ccc(Cl)cc2)cc1O :: 81.3
CCN1CCN(c2cc(-c3cn[nH]c3-c3cc(C)cc(OC)c3)nc(-c3cccnc3)n2)CC1 :: 99.9
N#Cc1c(N2CCOCC2)nc2sc3cc(Cl)ccc3n2c1=N :: 118

Give growth for each of the items listed below.
1. COc1ccc2c(c1)C(=O)/C(=C/c1ccc([N+](=O)[O-])s1)O2
2. Cc1ccc(NC(=O)Nc2ccc(-c3cccnc3)cc2N2CCC(CO)CC2)cc1
3. O=C(C(Br)Br)C(Br)C(Br)c1ccccc1 (centres undefined)
4. CO[C@H]1/C=C/O[C@@]2(C)Oc3c(C)c(O)c4c(O)c(c(/C=N/N5CCN(C)CC5)c(O)c4c3C2=O)NC(=O)/C(C)=C\C=C\C(C)[C@H](O)[C@@H](C)[C@@H](O)[C@@H](C)[C@@H](OC(C)=O)[C@@H]1C (some centres undefined)

Outgoing:
5.53
40.1
116
98.8
